Cited source: patent US20100280227A1

Target: T1, V3-46s Fab
T1 construct: N31S mutant of V3-46; also called V46s; N31S
T1 sequence (VH, as listed by the source, chain 1 of 2): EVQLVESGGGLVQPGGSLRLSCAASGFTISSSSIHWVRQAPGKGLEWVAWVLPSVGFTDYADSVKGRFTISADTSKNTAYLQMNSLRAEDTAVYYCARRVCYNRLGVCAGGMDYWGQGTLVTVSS
T1 sequence (VL, as listed by the source, chain 2 of 2): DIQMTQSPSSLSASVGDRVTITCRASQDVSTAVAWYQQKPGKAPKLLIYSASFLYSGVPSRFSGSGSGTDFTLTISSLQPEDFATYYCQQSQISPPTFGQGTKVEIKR
Assay: phage competition ELISA, ECD in solution (printed Phage50)
pIC50: −log10 of the molar value.
readout: pIC50

mouse BR3 extracellular domain (receptor, also called mBR3-ECD; mBR-ECD) MGARRLRVRSQRSRDSSVPTQCNQTECFDPLVRNCVSCELFHTPDTGHTSSLEPGTALQPQEGS; 8.77
